molecular target: KRas G12D (Homo sapiens, UniProt P01116, G12D); assay: biochemical;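 further: TR-FRET displacement binding assay on KRas, read after a one-hour incubation at room temperature, IC50 fitted from percent-of-control values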
Sequence (P01116 1-169 isoform P01116-2 G12D): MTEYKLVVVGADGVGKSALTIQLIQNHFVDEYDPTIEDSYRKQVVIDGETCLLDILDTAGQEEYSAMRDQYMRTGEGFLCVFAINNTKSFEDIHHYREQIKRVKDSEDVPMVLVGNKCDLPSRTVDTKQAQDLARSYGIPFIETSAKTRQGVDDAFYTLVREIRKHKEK
Readout: IC50 (nM)

Some entries whose results are on file:
> print(dat)
                                   molecule                               system.name  value
1  O=C1NCC(CNc2nc(OCC34CCCN3CCC4)nc3c(F)c(-c4cccc5cccc(F)c45)ncc23)O1 (stereo not shown)  KRas G12D (Homo sapiens, UniProt P01116, G12D)  26900
2  Fc1c(-c2cccc3cccc(F)c23)ncc2c(N3CCOCC3)nc(OCC34CCCN3CCC4)nc12  KRas G12D (Homo sapiens, UniProt P01116, G12D)  70000
3  CC1(O)CCCN(c2nc(OCC34CCCN3CCC4)nc3c(F)c(-c4cccc5cccc(C#N)c45)ncc23)C1 (stereo not shown)  KRas G12D (Homo sapiens, UniProt P01116, G12D)   2610

[P] CCc1c(F)ccc2cc(O)cc(-c3ncc4c(N5C[C@H](O)C[C@@H](F)C5)nc(OC[C@@]56CCCN5C[C@H](F)C6)nc4c3F)c12
[Q] OCC1COCCN(c2nc(OCC34CCCN3CCC4)nc3c(F)c(-c4cccc5cccc(F)c45)ncc23)C1 (stereo not shown)
[R] NC(=O)NC1CCN(c2nc(OCC34CCCN3CCC4)nc3c(F)c(-c4cccc5cccc(F)c45)ncc23)CC1
QUERY: Let's sort these by IC50, smallest first. Go ahead? As an answer, provide the labels arranged in the order called for.
RESULT: P, Q, R

[P] CCc1c(F)ccc2cc(O)cc(-c3ncc4c(NC56CC(CO)(C5)C6)nc(OC[C@@]56CCCN5C[C@H](F)C6)nc4c3F)c12
[Q] CCc1c(F)ccc2cc(O)cc(-c3ncc4c(N5CC6CCC(C6)C5)nc(OC[C@@]56CCCN5C[C@H](F)C6)nc4c3F)c12
QUERY: Param pair: P , Q . Output: the one whose IC50 is numerically greater. Mark your selection by writing its label.
RESULT: Q
(Q: 30 nM, P: 16 nM)
